# mortality at 100 µg/mL listing for each entry below
Test: Cytotoxicity against mouse Daltons ascitic lymphoma cells assessed as dead cells at 100 ug/ml after 3 hrs by trypan blue exclusion assay relative to control
Type: functional
Numeric only. Scale: %

Sample answers from the record:
O=c1cc(-c2ccc(C(F)(F)F)cc2)nc2[nH]c3ccccc3n12: 79
O=c1cc(Cn2c3ccccc3n3c(=O)cc(C(F)(F)F)nc23)c2cc(F)ccc2o1: 79

Next item in the queue.
Query string: If you can, please state the reported mortality at 100 µg/mL value of CC(C)c1cc(=O)n2c3ccccc3n(Cc3cc(=O)oc4ccc(F)cc34)c2n1 .
Result string: 81
